Assignment: determine reported growth inhibition for the given compounds.
- assay-remarks: NCI Yeast Anticancer Drug Screen. Data for the mec2-1 strain (AID 157)
- experimental-conditions: S. cerevisiae mec2-1 strain, at 50.0 µM (retest, dose inferred, filed as 5.0), active compounds read high
The panel holds about 79,000 compounds, 15% with a hit somewhere; the sample as a whole holds those more often.
Numbers only, in %.

// known answers, use as guide
>>> obs_value("CCOc1c(Br)cc(/C=C(\\C)[N+](=O)[O-])cc1OC")
9
>>> obs_value("C1=CC2CCC[N-]C2N1.C1=CC2CCC[N-]C2N1.[I][Pt+2][I] (stereo not given)")
99
>>> obs_value("O=[N+]([O-])/C=C/c1c(Cl)cccc1Cl")
100
>>> obs_value("COc1ccc2c(c1)CCC(N1CCCC(=O)C1)C2 (stereo not given)")
17
>>> obs_value("O=C1CC2CCCC(C1)N2Cc1ccccc1")
28
>>> obs_value("C[C@@H](O)[C@H]1/C=C/C=C\\C(=O)O[C@@H]2C[C@H]3O[C@@H]4[C@@H]5OC5(C)CCC4(COC(=O)[C@H]4O[C@]4(C)[C@@H](O)CO1)[C@]2(C)[C@]31CO1 (stereo not given in full)")
87
>>> obs_value("Cc1cc[n+](C2C(=O)c3ccccc3C(=O)C2Nc2cc(Cl)ccc2Cl)cc1 (stereo not given)")
98
>>> obs_value("COc1cc(C2c3cc4c(cc3OC(N3CCOCC3)C2C)OCO4)cc(OC)c1OC (stereo not given)")
31

// batch mode: one growth inhibition value per listed entry
1. CC12CCC3C(CCC4Cc5nc6nnnn6cc5CC43C)C1CCC2O (stereo not given)
2. CCCCCCCCCCCCCCCCOC[C@@H](COC(c1ccccc1)(c1ccccc1)c1ccccc1)O[P+](=S)OC (stereo not given in full)
3. O=C(O)c1ccc([Se][Se]c2ccc(C(=O)O)cc2)cc1
4. O=[C-]c1ccccc1[C-]=O.[Pd+2].c1ccc([PH+](c2ccccc2)c2ccccc2)cc1.c1ccc([PH+](c2ccccc2)c2ccccc2)cc1
5. O=C(Oc1ccc(S(=O)(=O)F)cc1F)c1ccccc1Cl
6. O=[N+]([O-])O.c1ccc([As+](c2ccccc2)(c2ccccc2)c2ccccc2)cc1

71
39
98
54
99
99

====

- assay-remarks: NCI Yeast Anticancer Drug Screen. Data for the bub3 strain (AID 167)
- experimental-conditions: S. cerevisiae bub3 mutant strain, at 50.0 µM (retest, dose inferred, filed as 5.0)
This is part of a sample that, as a whole, favours compounds with a hit. Of some 79,000 tested, about 15% had one in any assay. Active and inactive are the calls of the source. Cut-off read from the data, not from the text of the source: active = growth inhibition above about 70%; inactive = the rest.
Write down the outcome that applies. Available outcomes: 1 for active, -1 for inactive

Example results:
>>> answer_label("COC(=O)c1ccc([As]=O)cc1N (configuration not stated)")
-1
>>> answer_label("O=P(CCP(=O)(c1ccccc1)c1ccccc1)(c1ccccc1)c1ccccc1.[Cl][Sn]([Cl])([c]1ccccc1)[c]1ccccc1")
1
>>> answer_label("O=C(N/N=C/c1cc(Br)cc(Br)c1[O-])c1ccccc1O.O=C(N/N=C/c1cc(Br)cc(Br)c1[O-])c1ccccc1O.[Co+2]")
1
>>> answer_label("CCc1cc(C)cc2[n+]1CC=C2")
1
>>> answer_label("CC1=C[C@H]2O[C@H]3C[C@H]4OC(=O)/C=C\\C=C\\C(=O)OCC[C@@H](C)C(O)C(=O)OC[C@@]2(CC1)[C@@]4(C)[C@]31CO1 (some centres not stated)")
1
>>> answer_label("CC(=O)Nc1ccc([As](O[As](c2ccc(NC(C)=O)cc2)c2ccc([N+](=O)[O-])cc2)c2ccc([N+](=O)[O-])cc2)cc1 (configuration not stated)")
1

Moving on to the next compound.
Check the results log: what was the call for C[CH2][Sn]([F])([CH2]C)[CH2]C ?
1
